- test-target: Bromodomain-containing protein 9 (Homo sapiens, UniProt Q9H8M2)
- Sequence (Q9H8M2 whole entry): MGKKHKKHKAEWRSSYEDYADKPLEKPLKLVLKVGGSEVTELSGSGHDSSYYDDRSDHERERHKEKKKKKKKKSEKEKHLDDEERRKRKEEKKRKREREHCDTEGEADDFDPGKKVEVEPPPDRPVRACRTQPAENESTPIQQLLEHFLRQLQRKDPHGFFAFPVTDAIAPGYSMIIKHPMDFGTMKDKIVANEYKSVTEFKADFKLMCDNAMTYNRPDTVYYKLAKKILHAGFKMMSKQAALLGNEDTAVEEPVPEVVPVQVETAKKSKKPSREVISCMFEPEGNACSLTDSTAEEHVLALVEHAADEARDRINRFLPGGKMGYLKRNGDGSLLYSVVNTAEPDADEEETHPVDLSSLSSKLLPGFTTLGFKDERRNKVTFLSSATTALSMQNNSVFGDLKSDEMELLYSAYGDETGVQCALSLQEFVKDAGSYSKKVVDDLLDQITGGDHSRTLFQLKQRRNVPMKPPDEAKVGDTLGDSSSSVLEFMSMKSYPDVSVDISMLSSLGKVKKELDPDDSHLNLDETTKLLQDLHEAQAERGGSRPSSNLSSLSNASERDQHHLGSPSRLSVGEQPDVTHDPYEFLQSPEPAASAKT
- procedure-details: IC50 measurements for inhibitors using BRD9 AlphaLisa Binding Assay: His/Flag epitope tagged BRD9134-239 was cloned, expressed, and purified to homogeneity. […] After 20 minutes incubation at room temperature AlphaLisa Streptavidin Acceptor Beads (Perkin-AL125C) and AlphaLisa Nickel donor beads (Perkin AS 10 ID) were added to a final concentration of 15 ug/mL each.
assay-metric: IC50 (µM)

>>> data_value("C/C=C/Cn1cc(-c2cc(C(=O)NCC)ccc2OC)c2cc[nH]c2c1=O")
0.028

[A] CCCCn1cc(-c2cc(C#N)ccc2OC)c2cc[nH]c2c1=O
[B] C=CCn1cc(-c2cc(OC)c(C(=O)N3CCOCC3)cc2OC)c2cc(C)[nH]c2c1=O
[C] CC(C)(O)c1ccc(-c2cn(CCC3CC3)c(=O)c3[nH]ccc23)cc1
rank_up(items): orders items by reported IC50 in ascending numerical order. The reply should contain the labels ordered as requested.
B, A, C
(B: 0.009 µM, A: 0.046 µM, C: 0.28 µM)
